// data source = ChEMBL document CHEMBL3259553

target: Thyroid hormone receptor alpha (Homo sapiens); experiment: Agonist activity at recombinant His6-tagged THR-alpha (unknown origin) expressed in Escherichia coli BL21(DE3) co-expressing RXR preincubated for 30 mins assessed as biotin-GRIP1 peptide recruitment by HTRF assay
Sequence (P10827 whole entry): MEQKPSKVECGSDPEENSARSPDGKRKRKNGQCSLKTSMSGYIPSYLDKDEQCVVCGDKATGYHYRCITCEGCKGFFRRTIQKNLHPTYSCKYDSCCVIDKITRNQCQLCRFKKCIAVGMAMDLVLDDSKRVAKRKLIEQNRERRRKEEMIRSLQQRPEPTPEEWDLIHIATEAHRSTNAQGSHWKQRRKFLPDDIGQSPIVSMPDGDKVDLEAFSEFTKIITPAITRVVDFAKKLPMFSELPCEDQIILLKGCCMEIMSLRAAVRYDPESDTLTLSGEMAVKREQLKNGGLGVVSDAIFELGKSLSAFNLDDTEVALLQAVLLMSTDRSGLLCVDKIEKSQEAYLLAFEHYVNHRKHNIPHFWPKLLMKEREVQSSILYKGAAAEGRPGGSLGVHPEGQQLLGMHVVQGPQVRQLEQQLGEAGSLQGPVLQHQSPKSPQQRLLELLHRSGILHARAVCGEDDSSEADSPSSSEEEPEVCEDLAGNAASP
pEC50: −log10 of the molar value.
recorded.endpoint: pEC50

Examples from the recorded data:
CC(C)c1cc(Oc2c(Cl)cc(-n3nc(C#N)c(=O)[nH]c3=O)cc2Cl)nn(C)c1=O    6.48
CC(C)c1cc(Oc2c(Cl)cc(CC(=O)O)cc2Cl)n[nH]c1=O    5.15
CC(C)c1cc(Cc2c(Cl)cc(CC(=O)O)cc2Cl)n[nH]c1=O    5.37

P. CC(C)c1cc(Oc2c(Cl)cc(-n3ncc(=O)[nH]c3=O)cc2Cl)n[nH]c1=O
Q. CC(C)c1cc(Cc2c(Cl)cc(-n3nc(C#N)c(=O)[nH]c3=O)cc2Cl)n[nH]c1=O
## Input // compare measured pEC50, left P , right Q , return larger Respond with the label that goes with your answer.
## Output P
(P: 6.39, Q: 5.56)
